Measured pEC50, listed per entry for reference.
Target: AMPK
Test: AMPK activation, enzyme-linked immunosorbent assay
Format: biochemical
Conditions: Table 8, compounds of Table 1
Description: Compounds of Table 1 were assayed for their ability to activate AMPK using an enzyme-linked immunosorbent assay. Compounds of Table 2 were assayed for their ability to activate AMPK using an enzyme-linked immunosorbent assay. Compounds of Table 3 were assayed for their ability to activate AMPK using an enzyme-linked immunosorbent assay. Compounds of Table 4 were assayed for their ability to activate AMPK using an enzyme-linked immunosorbent assay. […]
pEC50: −log10 of the molar value.

>>> df
                            chemical_string  measured_quantity  test_value
0  O=C(NC1CCN(Cc2cccnc2)CC1)c1cc2ccc(OC3CCN(c4ccc(OC(F)(F)F)cc4)CC3)cc2o1              pEC50      > 7.00

Given the compound `O=C(NC1CCNCC1)c1cc2ccc(OC3CCN(c4ccc(OC(F)(F)F)cc4)CC3)cc2o1` , write its reported pEC50.
6.30 to 7.00

Given the compound `CS(=O)(=O)c1ccc(CN2CCC(Oc3ccc4oc(C(=O)NC5CCN(Cc6ccc(C#N)cc6)CC5)cc4c3)CC2)cc1` , write its reported pEC50.
> 7.00

Given the compound `O=C(NC1CCN(Cc2ccncc2)CC1)c1cc2cc(OC3CCN(c4ccc(OC(F)(F)F)cc4)CC3)ccc2o1` , write its reported pEC50.
> 7.00
